test system: Alternaria alternata CCM F-128; test: Antifungal activity (filamentous fungi), macrodilution on solidified PDA; assay type: cell-based; conditions: Alternaria alternata, CCMF128; A. alternata; read-out: IC50 and MIC100 (class symbol)
pIC50: −log10 of the molar value.

COMPOUND | pIC50
C[C@H](N)C(=O)O [Ala, alanine, reference compound] | < 2.70
